Consider the following binders and their measured IC50 (neutralization in TZM.bl cells) readings.
Target: HIV-1 pseudovirus Ce1176_A3 (HIV-1)
Assay: cell-based or functional assay

Request: Provide measured IC50 (neutralization in TZM.bl cells) value, entry: MS-87 (antibody, V domains shown) VH: QVQLVQSGPEVRKPGTSVKVSCKAPGNTLKTYDLHWVRSVPGQGLQWMGWISHEGDKKVIVERFKAKVTITRDRSTNTAYLQLSGLTSGDTAVYYCAKGSKHRLRDYALYDDDGALNWAVDVDYLSNLEFWGQGTAVTVSS VL: DFVLTQSPHSLSVTPGESASISCKSSHSLIHGDRNNYLAWYVQKPGRSPQLLIYLASSRASGVPDRFSGSGSDKDFTLKISRVETEDVGTYYCMQGRESPWTFGQGTKVDIKR
Response: 0.907 µg/mL

Request: Provide measured IC50 (neutralization in TZM.bl cells) value, entry: MS-79 (antibody, V domains shown) VH: QVQLVQSGPEVRKPGTSVKVSCKAPGNTLKTYDLHWVRSVPGQGLQWMGWISHEGDKKVIVERFKAKVTITWDRSTNTAYLQLSGLTSGDTAVYYCAKGSKHRLRDYALYDDDGALNWAVDVDYLSNLEFWGQGTAVTVSS VL: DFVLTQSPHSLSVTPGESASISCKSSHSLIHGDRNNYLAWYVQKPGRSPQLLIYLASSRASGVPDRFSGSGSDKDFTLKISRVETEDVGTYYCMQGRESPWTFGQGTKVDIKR
Response: 0.473 µg/mL

Request: Provide measured IC50 (neutralization in TZM.bl cells) value, entry: MS-84 (antibody, V domains shown) VH: QVQLVQSGPEVRKPGTSVKVSCKAPGNTLKTYDLHWVRSVPGQGLQWMGWISHEGDKKVIVERFKAKVTIDWDRSTNTAYLQLSGLRSGDTAVYYCAKGSKHRLRDYALYDDDGALNWAVDVDYLSNLEFWGQGTAVTVSS VL: DFVLTQSPLSLPVTPGEPASISCKSSHSLIHGDRNNYLAWYVQKPGQSPQLLIYLASSRASGVPDRFSGSGSDKDFTLKISRVEAEDVGVYYCMQGRESPWTFGQGTKVDIKR
Response: 0.018 µg/mL

***
Request: Provide measured IC50 (neutralization in TZM.bl cells) value, entry: MS-82 (antibody, V domains shown) VH: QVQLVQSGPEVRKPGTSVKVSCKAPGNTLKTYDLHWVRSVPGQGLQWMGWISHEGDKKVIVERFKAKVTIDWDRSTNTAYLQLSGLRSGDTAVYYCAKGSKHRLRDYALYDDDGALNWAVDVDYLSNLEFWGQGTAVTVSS VL: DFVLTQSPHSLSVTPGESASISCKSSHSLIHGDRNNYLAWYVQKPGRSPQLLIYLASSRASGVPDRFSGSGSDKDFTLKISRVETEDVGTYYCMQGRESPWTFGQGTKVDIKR
Response: 0.023 µg/mL

Request: Provide measured IC50 (neutralization in TZM.bl cells) value, entry: MS-77 (antibody, V domains shown) VH: QVQLVQSGPEVRKPGTSVKVSCKAPGNTFKTYDLHWVRSVPGQGLQWMGWISHEGDKKVIVERFKAKVTIDWDRSTNTAYLQLSGLTSGDTAVYYCAKGSKHRLRDYALYDDDGALNWAVDVDYLSNLEFWGQGTAVTVSS VL: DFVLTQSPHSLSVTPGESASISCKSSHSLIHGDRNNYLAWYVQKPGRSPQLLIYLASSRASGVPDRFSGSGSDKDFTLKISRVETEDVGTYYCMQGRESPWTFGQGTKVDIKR
Response: 0.067 µg/mL

Request: Provide measured IC50 (neutralization in TZM.bl cells) value, entry: MS-89 (antibody, V domains shown) VH: QVQLVQSGPEVRKPGTSVKVSCKAPGYTLKTYDLHWVRSVPGQGLQWMGWISHEGDKKVIVERFKAKVTITWDRSTNTAYLQLSGLTSGDTAVYYCAKGSKHRLRDYALYDDDGALNWAVDVDYLSNLEFWGQGTAVTVSS VL: DFVLTQSPLSLSVTPGESASISCKSSHSLIHGDRNNYLAWYVQKPGRSPQLLIYLASSRASGVPDRFSGSGSDKDFTLKISRVETEDVGTYYCMQGRESPWTFGQGTKVDIKR
Response: 0.298 µg/mL

Request: Provide measured IC50 (neutralization in TZM.bl cells) value, entry: MS-70 (antibody, V domains shown) VH: QVQLVQSGPEVRKPGTSVKVSCKAPGNTLKTYDLHWVRSVPGQGLQWMGWISHEGDKKVIVERFKAKVTIDWDRSTNTAYLQLSGLTSGDTAVYYCAKGSKHRLRDYALYDDDGALNWAVDVDYLSNLEFWGQGTAVTVSS VL: DFVLTQSPHSLSVTPGESASISCKSSHSLIHGDRNNYLAWYVQKPGQSPQLLIYLASSRASGVPDRFSGSGSDKDFTLKISRVETEDVGTYYCMQGRESPWTFGQGTKVDIKR
Response: 0.06 µg/mL

Request: Provide measured IC50 (neutralization in TZM.bl cells) value, entry: MS-85 (antibody, V domains shown) VH: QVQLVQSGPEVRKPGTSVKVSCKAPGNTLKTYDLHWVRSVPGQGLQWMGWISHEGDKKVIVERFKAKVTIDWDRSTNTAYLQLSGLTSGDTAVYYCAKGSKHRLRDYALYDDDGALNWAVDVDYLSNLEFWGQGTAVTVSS VL: DIVLTQSPHSLSVTPGESASISCKSSHSLIHGDRNNYLAWYVQKPGRSPQLLIYLASSRASGVPDRFSGSGSGTDFTLKISRVETEDVGTYYCMQGRESPWTFGQGTKVDIKR
Response: 0.073 µg/mL

Request: Provide measured IC50 (neutralization in TZM.bl cells) value, entry: MS-91 (antibody, V domains shown) VH: QVQLVQSGPEVRKPGTSVKVSCKASGYTLKTYDLHWVRSVPGQGLQWMGWISHEGDKKVIVERFKAKVTIDWDRSTNTAYLQLSGLTSGDTAVYYCAKGSKHRLRDYALYDDDGALNWAVDVDYLSNLEFWGQGTAVTVSS VL: DFVLTQSPLSLSVTPGESASISCKSSHSLIHGDRNNYLAWYVQKPGRSPQLLIYLASSRASGVPDRFSGSGSDTDFTLKISRVETEDVGTYYCMQGRESPWTFGQGTKVDIKR
Response: 0.213 µg/mL

Request: Provide measured IC50 (neutralization in TZM.bl cells) value, entry: MS-81 (antibody, V domains shown) VH: QVQLVQSGPEVRKPGTSVKVSCKAPGNTLKTYDLHWVRSVPGQGLQWMGWISHEGDKKVIVERFKAKVTIDWDRSTNTAYLELSGLTSGDTAVYYCAKGSKHRLRDYALYDDDGALNWAVDVDYLSNLEFWGQGTAVTVSS VL: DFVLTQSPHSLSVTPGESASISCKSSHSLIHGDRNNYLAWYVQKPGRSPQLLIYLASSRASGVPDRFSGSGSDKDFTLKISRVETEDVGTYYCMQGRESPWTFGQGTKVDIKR
Response: 0.044 µg/mL
